Data origin, for the record: PubChem BioAssay

Molecular target: Potassium voltage-gated channel subfamily KQT member 1 (Homo sapiens)
Experiment: KCNQ1 potassium channel potentiators, confirmation, FluxOR thallium flux, CHO cells, duplicates (AID 493007);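 for outcome: cells depolarized by a potassium plus thallium sulfate stimulus after compound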
Conditions: KCNQ1 cell line, FluxOR thallium flux fluorescence, at 10 µM, % of reference activator effect, buffer zero
The source made the active and inactive calls.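 Rule for the calls: active = potentiation averaged over duplicate wells exceeding buffer-only control mean by more than 3 SD; inactive = the rest.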
Mark one answer only. Choices: active, inactive

stdin: Short answer needed: outcome of this test for "Cc1nn(CCc2nn[nH]n2)c2nc(-c3ccc(C4CCCCC4)cc3)cc(C(F)(F)F)c12" ?
stdout: active

Others:
stdin: Short answer needed: outcome of this test for "CCOC(=O)c1sc(C)nc1C1CCN(C(=O)OCC)CC1" ?
stdout: inactive

stdin: Short answer needed: outcome of this test for "O=C(Cc1cccs1)N=Nc1c(O)[nH]c2ccc(Br)cc12" ?
stdout: inactive

stdin: Short answer needed: outcome of this test for "COC(=O)[C@H](C)NC(=O)Nc1cc(Cl)ccc1C" ?
stdout: inactive

stdin: Short answer needed: outcome of this test for "COc1ccc(OC)c(/C=C2\SC(=S)N(NS(=O)(=O)c3ccc(C)cc3)C2=O)c1" ?
stdout: active

stdin: Short answer needed: outcome of this test for "CC(C)(C)C(=O)NC(=S)NNC(=O)C(c1ccccc1)c1ccccc1" ?
stdout: active

---

Target: Short transient receptor potential channel 6 (Mus musculus) (UniProt Q61143)
Sequence (Q61143 whole entry, looked up): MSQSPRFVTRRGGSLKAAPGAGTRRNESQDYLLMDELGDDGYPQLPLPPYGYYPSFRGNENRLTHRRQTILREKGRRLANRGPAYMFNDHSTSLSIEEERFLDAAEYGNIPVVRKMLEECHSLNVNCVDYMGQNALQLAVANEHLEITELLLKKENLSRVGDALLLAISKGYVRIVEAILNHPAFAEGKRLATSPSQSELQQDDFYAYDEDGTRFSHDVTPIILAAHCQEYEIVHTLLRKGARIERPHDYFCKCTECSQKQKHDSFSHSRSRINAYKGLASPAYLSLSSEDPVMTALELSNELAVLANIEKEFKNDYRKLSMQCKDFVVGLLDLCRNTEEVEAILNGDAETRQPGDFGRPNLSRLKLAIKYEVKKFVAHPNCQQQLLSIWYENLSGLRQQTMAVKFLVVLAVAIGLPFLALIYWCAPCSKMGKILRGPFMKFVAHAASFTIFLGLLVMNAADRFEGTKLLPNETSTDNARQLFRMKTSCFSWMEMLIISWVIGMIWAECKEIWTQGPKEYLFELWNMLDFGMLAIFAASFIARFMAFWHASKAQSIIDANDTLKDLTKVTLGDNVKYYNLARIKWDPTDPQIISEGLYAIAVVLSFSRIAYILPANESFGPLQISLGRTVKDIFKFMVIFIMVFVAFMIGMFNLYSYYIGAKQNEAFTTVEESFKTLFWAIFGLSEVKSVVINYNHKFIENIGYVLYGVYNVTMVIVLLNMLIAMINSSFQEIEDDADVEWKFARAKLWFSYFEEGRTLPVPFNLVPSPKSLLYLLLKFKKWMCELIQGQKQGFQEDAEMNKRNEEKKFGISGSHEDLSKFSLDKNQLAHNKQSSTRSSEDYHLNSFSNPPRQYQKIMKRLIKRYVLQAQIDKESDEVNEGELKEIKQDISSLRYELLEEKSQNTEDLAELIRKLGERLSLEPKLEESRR
Assay: mouse TRPC6 channel activators, confirmation, HEK293 cells, membrane potential dye, duplicate (AID 488961)
Details: HEK293-TRPC6 membrane potential dye fluorescence, FDSS, at 10 µM
The list shows a part of the results. Activity calls are given as the source filed them.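 Rule for the calls: active = ratio signal rise beyond 5 SD above unstimulated control wells' mean, seen in both duplicate runs; inactive = the rest.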
Mark one answer only. Choices: true (1) = active, false (0) = inactive

stdin: Short answer needed: outcome of this test for "COc1cc(CNCCN(C)C)ccc1OCc1c(F)cccc1Cl" ?
stdout: true (1)

stdin: Short answer needed: outcome of this test for "CN1CCN(c2nc(Nc3ccc(O)cc3)nc3ccccc23)CC1" ?
stdout: false (0)

stdin: Short answer needed: outcome of this test for "O=C(CN1CCCCCC1)N1c2ccccc2Sc2ccc(C(F)(F)F)cc21" ?
stdout: false (0)

stdin: Short answer needed: outcome of this test for "Cc1cc(C)c2nc3nc(C)cc(C)c3c(N)c2c1" ?
stdout: false (0)

stdin: Short answer needed: outcome of this test for CN(C)c1cc(N)c2ccccc2n1 (tested in a mixture with another compound) ?
stdout: false (0)

Others:
stdin: Short answer needed: outcome of this test for "CCOC(=O)c1sc2nc(CSCC(=O)OCc3ccc(C(=O)OC)o3)[nH]c(=O)c2c1C" ?
stdout: true (1)

stdin: Short answer needed: outcome of this test for "COc1ccc(Cl)cc1NC(=O)CCS(=O)(=O)c1cc2c(cc1C)NC(=O)CO2" ?
stdout: false (0)

stdin: Short answer needed: outcome of this test for "CC(C)(C)Nc1nc(-c2ccccn2)nc2ccccc12" ?
stdout: false (0)

stdin: Short answer needed: outcome of this test for "CCCCc1nc(NCCN)c(C#N)c2c1CSC(C)(C)C2" ?
stdout: false (0)

stdin: Short answer needed: outcome of this test for "CN(CC(=O)Nc1ccccc1[N+](=O)[O-])Cc1ccc(Br)cc1" ?
stdout: false (0)

stdin: Short answer needed: outcome of this test for CN(C)c1ccc(C2N(C)C(=O)c3ccccc3N2C)cc1 (configuration not stated) ?
stdout: false (0)

---

Target: Short transient receptor potential channel 4 (Mus musculus)
Assay: calcium flux activators in TRPC4/5HT1a cells, counter-screen for TRPC4 activator project, cell-based, second counter screen, HEK293 TRPC4/5HT1a, Fluo-4 (AID 434977)
Details: Fluo-4 calcium flux, at 10 µM
The source made the active and inactive calls.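 The calls were made as follows: active = calcium signal rise above buffer-control mean plus 5 SD in both duplicates, and also a hit in the primary screen; inactive = the rest.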
Mark one answer only. Choices: active, inactive

// below: answered compounds
stdin: Short answer needed: outcome of this test for "CCn1cc(CN2CCC(n3nccc3NC(=O)CCOc3ccccc3)CC2)cn1" ?
stdout: inactive

stdin: Short answer needed: outcome of this test for "Cc1sc2ncnc(NC3CCN(Cc4ccccc4)CC3)c2c1C" ?
stdout: active

stdin: Short answer needed: outcome of this test for "CC1(C)CC(=O)c2cc(C(=O)NCc3ccco3)c(=O)n(-c3ccc(Cl)cc3)c2C1" ?
stdout: inactive

Others:
stdin: Short answer needed: outcome of this test for "CCn1c(N)[n+](CC(=O)Nc2ccc(SC(F)F)cc2)c2ccccc21" ?
stdout: active

stdin: Short answer needed: outcome of this test for "Cc1onc(-c2ccccc2)c1C(=O)NNC(=S)NC(=O)c1ccc(Cl)cc1Cl" ?
stdout: active

---

Target: Short transient receptor potential channel 4 (Mus musculus)
Experiment: inhibitors of mouse TRPC4 channel, confirmation, cell-based, second round, Fluo4, HEK293 TRPC4beta/mu-opioid, 1 µM (AID 2637)
Settings: Fluo4 calcium flux, DAMGO, at 1 µM
Activity calls are given as the source filed them.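 How the source made its calls: active means calcium signal ratio cut to more than 3 SD under the fully stimulated control mean yet still positive, in both repeats and the primary screen; inactive means the rest.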
Mark one answer only. Choices: active, inactive

stdin: Short answer needed: outcome of this test for "COC(=O)C1=C(C)N(Cc2ccccc2)C(=NCCc2ccccn2)N[C@H]1c1cccc(F)c1" ?
stdout: inactive

Others:
stdin: Short answer needed: outcome of this test for "c1ccc(Nc2nc(Nc3ccccc3)nc(N3CCNCC3)n2)cc1" ?
stdout: inactive

stdin: Short answer needed: outcome of this test for "COc1ccc(CCN(C)CCN2C(=O)c3ccccc3C2=O)cc1OC" ?
stdout: active

stdin: Short answer needed: outcome of this test for O=C(C1CCCN(Cc2ccccc2F)C1)N1CCc2ccccc2C1 (stereo unspecified) ?
stdout: inactive

stdin: Short answer needed: outcome of this test for O=C1CC(O)(C(F)(F)F)Oc2c1ccc1ccccc21 (stereo unspecified) ?
stdout: inactive

stdin: Short answer needed: outcome of this test for CN(C)C(CNC(=S)Nc1cccc(Cl)c1)c1ccccc1 (stereo unspecified) ?
stdout: inactive

stdin: Short answer needed: outcome of this test for "Fc1ccc(-c2nnc(CN3CCN(c4ncc(C(F)(F)F)cc4Cl)CC3)o2)cc1" ?
stdout: inactive

stdin: Short answer needed: outcome of this test for COc1ccc(C2Nc3ccccc3C(=O)N2Cc2ccco2)cc1COc1ccc(NC(C)=O)cc1 (stereo unspecified) ?
stdout: inactive

stdin: Short answer needed: outcome of this test for "O=C(NCCc1ccccn1)C(F)(F)C(F)(F)C(F)(F)C(F)(F)C(F)(F)C(F)F" ?
stdout: inactive

stdin: Short answer needed: outcome of this test for "O=c1c2c(-c3ccccc3)csc2ncn1/N=C/c1cccc([N+](=O)[O-])c1O" ?
stdout: active

stdin: Short answer needed: outcome of this test for "c1ccc2c(c1)CCN(c1ncnc3c1[nH]c1ccccc13)C2" ?
stdout: inactive

stdin: Short answer needed: outcome of this test for "Cc1ccc(C(=O)NNC(=S)NC(=O)c2ccc(Cl)cc2)cc1" ?
stdout: inactive

stdin: Short answer needed: outcome of this test for "O=C(NNC(=S)NC(=O)c1ccccc1Cl)c1cccc([N+](=O)[O-])c1" ?
stdout: inactive

stdin: Short answer needed: outcome of this test for "COc1ccc(CCN(C)CCC(=O)Nc2c(C)cc(C)cc2C)cc1OC" ?
stdout: inactive

stdin: Short answer needed: outcome of this test for CN(CCc1ccccn1)C(=O)CC1C(=O)NCCN1Cc1ccccc1C(F)(F)F (stereo unspecified) ?
stdout: inactive

stdin: Short answer needed: outcome of this test for O=C(C1CCCN(Cc2ccncc2)C1)N1CCc2ccccc2C1 (stereo unspecified) ?
stdout: inactive

stdin: Short answer needed: outcome of this test for "O=C(CCC1CCCC1)c1c(O)c2ccccc2oc1=O" ?
stdout: inactive

stdin: Short answer needed: outcome of this test for COc1ccccc1N1CCN(C(c2cccs2)C(C)NC(=O)c2cccs2)CC1 (stereo unspecified) ?
stdout: inactive

stdin: Short answer needed: outcome of this test for CN(C)C(CNC(=O)C1CCN(S(=O)(=O)c2cccc(C(F)(F)F)c2)CC1)c1ccccc1 (stereo unspecified) ?
stdout: active

stdin: Short answer needed: outcome of this test for "CCOC(=O)C1(CC2CC2)CCN(Cc2ccc(O)c(Cl)c2)CC1" ?
stdout: active

stdin: Short answer needed: outcome of this test for "COc1ccccc1CCC(=O)Nc1cc(S(=O)(=O)N2CCCCC2)ccc1N1CCN(C)CC1" ?
stdout: inactive

---

Test: thallium flux activation in parental CHO cells, counter-screen for KCNQ1 potentiator project (AID 493006);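 for activation: fluorescence ratio of max minus min over baseline after K+ and Tl+ depolarization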
Details: parental CHO-K1 cells, FluxOR thallium flux, at 10 µM; stronger effect = higher value
The source made the active and inactive calls.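 How the source made its calls: active means duplicate-averaged activation above buffer control mean plus 5 SD of those controls; inactive means the rest.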
result.type: activation

// solved cases for activation follow
// "O=C(CSc1cccc[n+]1[O-])c1cc(Cl)ccc1Cl" : activation value = inactive

// "COc1ccc(NC(=O)[C@@H]2CC=C[C@@H]3CCN(C4CCCCC4)C(=O)[C@@H]32)cc1" : activation value = inactive

// "Cc1ccc2nc(SCC(=O)N3CCN(C(=O)c4ccco4)CC3)[nH]c2c1" : activation value = inactive

// Cc1cccc(CNC(=O)C2CCCN(c3nn4c(=O)cc(C)nc4s3)C2)c1 (stereo unspecified) : activation value = inactive

// "Cc1[nH]c(=S)sc1Cc1ccc(F)cc1" : activation value = 286% (active)

Can you give me activation for all of these, one by one?
1. S=c1nc(Cc2ccc(Cl)cc2)[nH]c2ccccc12
2. CCCCN(CCCC)C(=S)NC(=O)C(C)(C)C

stdout:
["372% (active)", "inactive"]
